Reference source for all entries: patent US20220017512A1

TARGET_UNDER_TEST: Recombinant human TRKC (Homo sapiens, UniProt Q16288)
Sequence (Q16288 32-839): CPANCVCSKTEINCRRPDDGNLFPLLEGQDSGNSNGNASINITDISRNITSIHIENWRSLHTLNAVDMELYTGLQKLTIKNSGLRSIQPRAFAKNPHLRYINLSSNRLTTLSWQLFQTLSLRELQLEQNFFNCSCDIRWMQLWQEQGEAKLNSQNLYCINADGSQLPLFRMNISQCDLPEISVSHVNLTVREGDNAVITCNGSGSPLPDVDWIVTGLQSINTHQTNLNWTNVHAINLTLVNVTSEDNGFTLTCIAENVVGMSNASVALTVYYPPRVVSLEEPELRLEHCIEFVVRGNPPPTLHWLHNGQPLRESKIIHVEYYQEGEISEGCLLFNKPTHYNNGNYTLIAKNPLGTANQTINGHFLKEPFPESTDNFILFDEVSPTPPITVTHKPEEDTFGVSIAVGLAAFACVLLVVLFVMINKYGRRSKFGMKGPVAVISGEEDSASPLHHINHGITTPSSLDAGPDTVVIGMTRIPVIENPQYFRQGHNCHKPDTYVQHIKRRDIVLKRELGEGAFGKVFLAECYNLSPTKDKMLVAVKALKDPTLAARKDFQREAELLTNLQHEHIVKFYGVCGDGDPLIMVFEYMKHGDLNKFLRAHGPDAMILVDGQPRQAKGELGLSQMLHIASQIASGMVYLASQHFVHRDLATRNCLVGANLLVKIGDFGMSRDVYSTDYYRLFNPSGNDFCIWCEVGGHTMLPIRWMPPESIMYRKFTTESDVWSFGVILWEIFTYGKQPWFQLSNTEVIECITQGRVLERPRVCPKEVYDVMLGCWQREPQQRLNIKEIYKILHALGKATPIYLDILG
EXPERIMENTAL_DETAILS: In vitro activity test on TRKC kinase (HTRF KinEASE TK)
CONDITION_INFO: 25.64 μM ATP, 40 min
PARAMETER_MEASURED: IC50

Sample answers from the record:
INSERT INTO results (compound, experimental_result) VALUES
  ('O[C@H]1CCN(C(=S)Nc2ccnc3ccc(N4C[C@@H](F)C[C@@H]4c4cc(F)ccc4F)nc23)C1', '< 1 nM'),
  ('[2H]c1nc(-c2cnn(C3CCNCC3)c2)c2nc(N3C[C@@H](F)C[C@@H]3c3cc(F)ccc3F)ccc2n1', '< 1 nM'),
  ('Fc1ccc(F)c([C@H]2CCCN2c2ccc3nccc(-c4cnn(C5CCNCC5)c4F)c3n2)c1', '< 1 nM');

# input for lookup
Query: # return IC50 for O=C1CC(n2cc(-c3ccnc4ccc(N5C[C@@H](F)C[C@@H]5c5cc(F)ccc5F)nc34)cn2)CCN1 (stereo partly shown) , test system: Recombinant human TRKC (Homo sapiens, UniProt Q16288)
Response: < 500 nM

---

TARGET_UNDER_TEST: Recombinant human TRKB (Homo sapiens)
Sequence (Q16620 32-822): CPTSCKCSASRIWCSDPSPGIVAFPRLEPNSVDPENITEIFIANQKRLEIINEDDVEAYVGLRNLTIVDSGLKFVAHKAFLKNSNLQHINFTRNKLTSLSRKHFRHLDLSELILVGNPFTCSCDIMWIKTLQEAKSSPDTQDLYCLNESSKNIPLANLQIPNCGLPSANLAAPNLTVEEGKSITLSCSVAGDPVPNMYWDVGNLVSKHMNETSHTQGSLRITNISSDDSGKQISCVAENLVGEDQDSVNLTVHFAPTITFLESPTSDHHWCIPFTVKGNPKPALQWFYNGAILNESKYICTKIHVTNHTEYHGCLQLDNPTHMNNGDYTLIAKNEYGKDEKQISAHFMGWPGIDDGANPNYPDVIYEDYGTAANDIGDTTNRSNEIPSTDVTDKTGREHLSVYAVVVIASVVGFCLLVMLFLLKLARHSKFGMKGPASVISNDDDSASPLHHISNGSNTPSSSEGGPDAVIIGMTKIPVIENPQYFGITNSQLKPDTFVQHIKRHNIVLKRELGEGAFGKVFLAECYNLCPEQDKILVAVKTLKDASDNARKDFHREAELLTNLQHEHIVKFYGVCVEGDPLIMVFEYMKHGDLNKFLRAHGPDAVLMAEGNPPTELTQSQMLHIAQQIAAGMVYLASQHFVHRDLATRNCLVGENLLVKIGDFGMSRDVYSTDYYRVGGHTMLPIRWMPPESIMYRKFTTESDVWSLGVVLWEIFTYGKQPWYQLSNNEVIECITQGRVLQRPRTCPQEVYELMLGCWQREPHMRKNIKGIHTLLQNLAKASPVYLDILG
EXPERIMENTAL_DETAILS: In vitro activity test on TRKB kinase (HTRF KinEASE TK)
CONDITION_INFO: 4.77 μM ATP, 50 min
Reported IC50 values for a set of compounds

These solved cases illustrate the format of a correct answer.
INSERT INTO results (compound, parameter_measured, experimental_result) VALUES
  ('Fc1ccc(F)c([C@H]2C[C@H](F)CN2c2ccc3ncnc(-n4cc(C5CCNCC5)cn4)c3n2)c1', 'IC50', '< 1 nM'),
  ('Fc1ccc(F)c([C@H]2C[C@H](F)CN2c2ccc3ncc(Cl)c(-c4cnn([C@H]5CCNC5)c4)c3n2)c1', 'IC50', '< 10 nM'),
  ('CC(C)(O)Cn1cc(-c2c(Cl)cnc3ccc(N4C[C@@H](F)C[C@@H]4c4cc(F)ccc4F)nc23)cn1', 'IC50', '< 1 nM'),
  ('O=S(=O)(Nc1ccnc2ccc(N3C[C@@H](F)C[C@@H]3c3cc(F)ccc3F)nc12)N1CC[C@H](O)C1', 'IC50', '< 1 nM'),
  ('Fc1ccc(F)c([C@H]2C[C@H](F)CN2c2ccc3nccc(-c4cnn(C5CCOCC5)c4)c3n2)c1', 'IC50', '< 1 nM');

Query: Give the value of IC50 reported for the following: `[2H]c1nc(-c2cnn(C3CCNCC3)c2)c2nc(N3C[C@@H](F)C[C@@H]3c3cc(F)ccc3F)ccc2n1`
Response: < 10 nM

Query: Write down IC50 measured for item `O=C1N(c2ccnc3ccc(N4C[C@@H](F)C[C@@H]4c4cc(F)ccc4F)nc23)CC12CCNCC2`
Response: < 1 nM

Query: Output measured IC50 for this item: `O[C@H]1CCN(c2ccc(-c3c(Cl)cnc4ccc(N5C[C@@H](F)C[C@@H]5c5cc(F)ccc5F)nc34)cn2)C1`
Response: < 10 nM

---

TARGET_UNDER_TEST: Recombinant human TRKA (Homo sapiens, UniProt P04629)
Sequence (P04629 33-796): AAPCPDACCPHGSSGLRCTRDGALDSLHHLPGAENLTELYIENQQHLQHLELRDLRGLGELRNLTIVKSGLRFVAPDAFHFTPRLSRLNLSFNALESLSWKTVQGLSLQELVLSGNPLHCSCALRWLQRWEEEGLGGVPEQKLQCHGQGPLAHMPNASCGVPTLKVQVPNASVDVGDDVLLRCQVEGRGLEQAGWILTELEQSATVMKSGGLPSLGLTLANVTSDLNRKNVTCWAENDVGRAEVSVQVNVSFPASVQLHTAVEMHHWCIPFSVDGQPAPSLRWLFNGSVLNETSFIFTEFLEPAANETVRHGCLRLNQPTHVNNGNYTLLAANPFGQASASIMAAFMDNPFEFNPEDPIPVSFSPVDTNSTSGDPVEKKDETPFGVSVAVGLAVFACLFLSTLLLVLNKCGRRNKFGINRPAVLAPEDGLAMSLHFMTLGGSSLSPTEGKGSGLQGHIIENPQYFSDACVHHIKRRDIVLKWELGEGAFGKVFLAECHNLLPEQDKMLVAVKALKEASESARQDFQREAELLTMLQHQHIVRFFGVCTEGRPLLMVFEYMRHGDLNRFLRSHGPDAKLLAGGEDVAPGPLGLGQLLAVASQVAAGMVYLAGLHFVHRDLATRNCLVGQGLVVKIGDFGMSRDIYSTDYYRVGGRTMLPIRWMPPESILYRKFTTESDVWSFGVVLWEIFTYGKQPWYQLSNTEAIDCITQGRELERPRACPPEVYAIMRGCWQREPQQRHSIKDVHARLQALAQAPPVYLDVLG
EXPERIMENTAL_DETAILS: In vitro activity test on TRKA kinase (HTRF KinEASE TK)
CONDITION_INFO: 14.68 μM ATP, 40 min
PARAMETER_MEASURED: IC50

Query: Tell me measured IC50 for `COc1ccc(CNc2ccnc3ccc(N4CCC[C@@H]4c4cc(F)ccc4F)nc23)cc1` please.
Response: < 50 nM

Query: Tell me measured IC50 for `Fc1ccc(F)c([C@H]2C[C@H](F)CN2c2ccc3ncc(F)c(-c4cnn(C5CCNCC5)c4)c3n2)c1` please.
Response: < 1 nM

Query: Tell us which IC50 value is on record for `Fc1ccc(F)c([C@H]2C[C@H](F)CN2c2ccc3ncnc(-c4cnn(C5CCNCC5)c4)c3n2)c1`
Response: < 1 nM

Query: Give a short answer stating reported IC50 for CC1(C)CC(n2cc(-c3ccnc4ccc(N5CCC[C@@H]5c5cc(F)ccc5F)nc34)cn2)CCN1 (stereo partly drawn) .
Response: < 1 nM

Query: Please supply the value of reported IC50 for the item `Fc1ccc(Cl)c([C@H]2CCCN2c2ccc3ncc(F)c(-c4cnn(C5CCNCC5)c4)c3n2)c1`
Response: < 1 nM

Query: Please supply the value of reported IC50 for the item `CN1CCC(n2cc(-c3c(Cl)cnc4ccc(N5C[C@@H](F)C[C@@H]5c5cc(F)ccc5F)nc34)cn2)CC1`
Response: < 1 nM
